%RA at 10 µM ±SEM mAChE listing for selected compounds.
# TGT: mAChE (Mus musculus, UniProt P21836)
# Construct: donated by Florian Nachon (IBS, Grenoble)
# Sequence (P21836 32-614): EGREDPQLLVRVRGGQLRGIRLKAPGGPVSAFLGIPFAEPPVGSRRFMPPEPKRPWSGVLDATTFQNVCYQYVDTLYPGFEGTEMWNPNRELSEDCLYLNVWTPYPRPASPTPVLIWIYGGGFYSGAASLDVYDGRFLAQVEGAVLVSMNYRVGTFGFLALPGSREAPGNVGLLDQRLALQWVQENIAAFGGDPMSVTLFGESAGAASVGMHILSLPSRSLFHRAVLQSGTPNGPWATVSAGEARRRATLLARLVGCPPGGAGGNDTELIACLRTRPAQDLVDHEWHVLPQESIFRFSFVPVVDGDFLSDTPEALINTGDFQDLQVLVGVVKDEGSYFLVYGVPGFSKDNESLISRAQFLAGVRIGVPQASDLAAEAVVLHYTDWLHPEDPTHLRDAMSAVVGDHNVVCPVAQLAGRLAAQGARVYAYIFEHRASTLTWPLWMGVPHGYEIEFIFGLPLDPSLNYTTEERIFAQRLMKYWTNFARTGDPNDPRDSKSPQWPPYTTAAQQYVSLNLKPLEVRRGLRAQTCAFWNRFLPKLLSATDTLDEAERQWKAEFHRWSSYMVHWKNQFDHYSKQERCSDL
# PROCEDURE_SUMMARY: In-vitro inhibitory activity against mAChE, method of Ellman
# Assay type: biochemical, murine
# CONDITION_DETAILS: residual activity at 10 µM; %RA >75% was considered no inhibition; Supplementary Table 1
QUANTITY_KIND: %RA at 10 µM ±SEM mAChE

COMPOUND | QUANTITY_KIND | RESULT
CCCCN(CC1CCCN(Cc2ccccc2)C1)S(=O)(=O)c1ccc2ccccc2c1 (racemic) | %RA at 10 µM ±SEM mAChE | 90% ±1%
COCCN(CC1CCCN(C2Cc3ccccc3C2)C1)S(=O)(=O)c1ccc([N+](=O)[O-])cc1 (racemic) | %RA at 10 µM ±SEM mAChE | 91% ±1%
COCCN(CC1CCCN(C2Cc3ccccc3C2)C1)S(=O)(=O)c1ccccc1 (racemic) | %RA at 10 µM ±SEM mAChE | 97% ±4%
COCCCN(CC1CCN(C2Cc3ccccc3C2)CC1)S(=O)(=O)c1ccc2ccccc2c1 | %RA at 10 µM ±SEM mAChE | 86% ±0.004%
COCCCN(CC1CCN(Cc2ccccc2)CC1)S(=O)(=O)c1ccc2ccccc2c1 | %RA at 10 µM ±SEM mAChE | 95% ±4%
CNC(=O)c1ccccc1S(=O)(=O)N(CCOC)CC1CCCN(C2Cc3ccccc3C2)C1 (racemic) | %RA at 10 µM ±SEM mAChE | 101% ±4%
COCCN(CC1CCCN(C2Cc3ccccc3C2)C1)S(=O)(=O)c1ccc(C)cc1 (racemic) | %RA at 10 µM ±SEM mAChE | 86% ±3%
O=S(=O)(NCC1CCCN(Cc2ccncc2)C1)c1ccc2ccccc2c1 (racemic) | %RA at 10 µM ±SEM mAChE | 95% ±5%
COCCN(CC1CCN(C2Cc3ccccc3C2)CC1)S(=O)(=O)c1ccc2ccccc2c1 | %RA at 10 µM ±SEM mAChE | 87% ±3%
CN(CC1CCCN(Cc2ccccc2)C1)S(=O)(=O)c1ccc2ccccc2c1 (racemic) | %RA at 10 µM ±SEM mAChE | 82% ±1%
COCCN(CC1CCCN(C2Cc3ccccc3C2)C1)S(=O)(=O)c1ccc(F)cc1 (racemic) | %RA at 10 µM ±SEM mAChE | 88% ±2%
COCCN(CC1CCCN(Cc2ccccc2)C1)S(=O)(=O)c1cccc2ccccc12 (racemic) | %RA at 10 µM ±SEM mAChE | 94% ±4%
COCCN(CC1CCCN(C2Cc3ccccc3C2)C1)S(=O)(=O)c1ccc(OC)cc1 (racemic) | %RA at 10 µM ±SEM mAChE | 87% ±7%
COCCN(CC1CCCN(C2Cc3ccccc3C2)C1)S(=O)(=O)c1ccc2ccccc2c1 (racemic) | %RA at 10 µM ±SEM mAChE | 72% ±1%
COCCN(CC1CCCN(Cc2cccc(C#N)c2)C1)S(=O)(=O)c1ccc2ccccc2c1 (racemic) | %RA at 10 µM ±SEM mAChE | 93% ±3%
COCCN(CC1CCCN(Cc2ccc(N(C)C)cc2)C1)S(=O)(=O)c1ccc2ccccc2c1 (racemic) | %RA at 10 µM ±SEM mAChE | 105% ±6%
